Assay: basal HepG2 mitochondrial membrane potential changes, profiling panel, cell-based, JC-1 fluorescence, 24 h, 100 nL compound (AID 1167); note: test concentration not given here
Settings: higher = more signal
Outcome Measure: z-score
Answer with a number only.

Compound: COc1ccc(C(O)C2C=CC3C(=O)N(c4ccccc4)C(=O)C3N2Nc2ccccc2)cc1OCc1ccccc1 (centres undefined)
Numeric Value: -1.02
--
Compound: O=C1O[C@@H](c2ccccc2)[C@@H](c2ccccc2)N2[C@@H](c3ccccc3OCCO)[C@]3(C(=O)Nc4ccc(C#CCCO)cc43)[C@@H](C(=O)N3CCN(c4ncccn4)CC3)[C@H]12
Numeric Value: 0.799
--
Compound: [N-]=[N+]=NCc1ccccc1C[C@@]1(C(=O)NCCN2CCOCC2)N=C(c2ccc(OCCCO)cc2)O[C@@H]1c1ccccc1N=[N+]=[N-]
Numeric Value: 0.862
--
Compound: CN(C)CCCCNC(=O)[C@H]1C[C@H]2C(=O)N[C@@H](CCCCN(C)C)C(=O)N2[C@H]1c1cccc(OCCO)c1
Numeric Value: 0.13
--
Compound: CN(C)CCCNC(=O)[C@@H]1c2ccccc2C(=O)N(CC23CC4CC(CC(C4)C2)C3)[C@H]1c1ccc(CO)cc1
Numeric Value: 1.44
--
Compound: C=CCN1C(=O)[C@@]2(O[C@@H](CCO)[C@H]([Si](C)(C)c3ccc(OC)cc3)[C@H]2C)c2cc(N3C(=O)c4ccccc4Oc4ccccc43)ccc21
Numeric Value: -2.97
--
Compound: Cc1ccc(S[C@]2(C(=O)NCCN3CCOCC3)CC(=O)N(Cc3ccccc3C(F)(F)F)[C@@H]2c2ccc(CO)cc2I)cc1
Numeric Value: -0.178
--
Compound: O=C(CS)NCCCCCCNC(=O)[C@H]1C[C@H]2C(=O)N[C@@H](Cc3ccccc3)C(=O)N2[C@H]1c1cccc(OCCO)c1
Numeric Value: -0.394
--
Compound: CC(C)NC(=O)[C@@]1(C)c2ccccc2C(=O)N(C(C)C)[C@H]1c1ccc(CO)cc1
Numeric Value: 0.313
--
Compound: COCCOC(=O)N1C(=O)[C@@]2(c3cc(C#CC4=CCCCC4)ccc31)[C@H](C(=O)N1CCN(c3ncccn3)CC1)[C@H]1C(=O)O[C@H](c3ccccc3)[C@H](c3ccccc3)N1[C@@H]2c1ccc(O)cc1
Numeric Value: -1.16

Give the reported value of z-score for this record: `COc1ccc([Si](C)(C)[C@@H]2[C@@H](CCO)O[C@]3(C(=O)N(Cc4cccc(N5C(=O)c6cccc7cccc5c67)c4)c4ccccc43)[C@H]2C)cc1`
-0.543

Give the reported value of z-score for this record: `Cc1ccc(S[C@]2(C(=O)NCC(F)(F)F)CC(=O)N(Cc3ccccc3)[C@@H]2c2ccc(CO)cc2)cc1`
0.0177

Give the reported value of z-score for this record: `COc1ccc(CCNC(=O)[C@@]2(Sc3ccc(C)cc3)CC(=O)N(Cc3cc(C(F)(F)F)cc(C(F)(F)F)c3)[C@@H]2c2ccc(CO)cc2I)cc1`
-1.08

Give the reported value of z-score for this record: `O=c1cccc(-c2ccc(C(F)(F)F)cc2)o1`
-0.487

====

Tested on: Wnt5a (protein binding on small-molecule microarray)
Assay: Wnt5a binders on small-molecule microarray, primary screen, biophysical, 635/667 nm fluorescence (AID 1142);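 note: fluorescence read at 667 nm with signal to noise per printed feature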
Settings: 635 nm fluorescence, higher = more signal
// values below are reported composite z-score
Answer with a number only.

Some compounds with recorded composite z-score:
Compound: COCCCNC(=O)[C@]1(Cc2ccccc2N=[N+]=[N-])N=C(c2ccc(OCCCO)cc2)O[C@@H]1c1ccccc1N=[N+]=[N-]
Numeric Value: 0.497
--
Compound: Cc1ccc(S[C@]2(C(=O)NCC(C)C)CC(=O)N(Cc3ccccc3Cl)[C@@H]2c2ccc(CO)cc2I)cc1
Numeric Value: -0.296

Give the reported value of composite z-score for this record: `CCCCC(=C=CC[C@@H](O)c1ccc(OCCO)cc1)C[C@@H](O)COCc1ccccc1`
0.511

Give the reported value of composite z-score for this record: `CCOC(=O)C[C@H]1[C@H](OC(=O)c2ccccc2-c2ccccc2)[C@@H](NC(=O)CC(C)C)c2cc(OCCCO)ccc2N1C(=O)c1ccc2ccccc2n1`
0.0056

Give the reported value of composite z-score for this record: CC(C)N1CC=CC23O[C@@H]4C=CCOC(=O)[C@@H]4[C@H]2C(=O)N(C(C)CO)[C@@H]3C1=O (stereo partly specified)
-0.517

Give the reported value of composite z-score for this record: `C=CCOC(=O)[C@@H]1[C@H]2C(=O)O[C@H](c3ccccc3)[C@H](c3ccccc3)N2[C@H](c2ccc(OCCOC(=O)[C@H]3C[C@H]4C(=O)N[C@@H](CCCCNC(C)=O)C(=O)N4[C@H]3c3cccc(OCCO)c3)cc2)[C@@]12C(=O)Nc1ccc(I)cc12`
0.218

====

Assay: E. coli DRC41 culture turbidity changes, primary screen, E. coli filamentation inducer project, strain DRC41, OD650, 48 h (AID 1152);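 note: E. coli MC1000 strain DRC41 lacking acrAB efflux pump and sulA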
Conditions: E. coli DRC41 (acrAB sulA), higher = more signal, called active from +8 up or from −8 down
Label 1 when z-score is at or above 0.2; otherwise label 0.

Compound: CCOC(=O)C[C@H]1[C@H](OC(=O)Cc2ccc3c(c2)OCO3)[C@@H](NC(=O)Cc2ccc(OC)cc2)c2cc(OCCCO)ccc2N1C(=O)c1ccccc1
Assigned Category: 1

Compound: CCCC=C(CCC)[C@@H](NP(=O)(c1ccccc1)c1ccccc1)c1ccc(C(F)(F)F)cc1
Assigned Category: 0

Compound: O=C1O[C@@H](c2ccccc2)[C@@H](c2ccccc2)N2[C@@H](c3ccccc3OCCO)[C@]3(C(=O)Nc4ccccc43)[C@@H](C(=O)NC[C@H](O)c3ccccc3)[C@H]12
Assigned Category: 0

Compound: C=C(/C(=C/C[C@@H](OC(=O)c1ccncc1)c1ccccc1OCCO)c1cc(C(=O)OC)ccc1OC)C(C)C
Assigned Category: 1

Compound: CC1CC/C=C\[C@H]2OC34C=CCN(C(C)C)C(=O)[C@H]3N(CCCCCO)C(=O)[C@@H]4C2C(=O)O1 (some centres not stated)
Assigned Category: 1

Compound: O=C1c2ccccc2[C@@]2(Cc3ccccc3N(C3CC3)C2=O)[C@H](c2ccc(CO)cc2)N1C1CCCCC1
Assigned Category: 0

Does z-score meet or surpass 0.2 for `O=C(N1CCCCC1)[C@@]1(Cc2ccccc2)COC(c2ccc(OCCCO)cc2)=N1` ?
1

Does z-score meet or surpass 0.2 for `C=CCN1C(=O)[C@]2(CC=C)N=C(c3ccc(OCCCO)cc3)O[C@@H]2c2ccccc21` ?
1

Does z-score meet or surpass 0.2 for `COCCOC(=O)N1C(=O)[C@@]2(c3cc(C#CC4=CCCCC4)ccc31)[C@H](C(=O)N1CCN(c3ncccn3)CC1)[C@H]1C(=O)O[C@H](c3ccccc3)[C@H](c3ccccc3)N1[C@@H]2c1ccc(O)cc1` ?
0

Does z-score meet or surpass 0.2 for `O=C(CS)NCCCCCCNC(=O)[C@H]1C[C@H]2C(=O)N[C@@H](Cc3ccccc3)C(=O)N2[C@H]1c1cccc(OCCO)c1` ?
0

Does z-score meet or surpass 0.2 for CC[C@H]1C2=C3C(CC[C@H]4C(OCc5ccc(F)cc5C(F)(F)F)OC[C@](C)([C@@H]34)N(C(=O)OC(C)(C)C)C2)C2COC(=O)OCC21 (some centres not stated) ?
0

Does z-score meet or surpass 0.2 for NC(=O)N1C(=O)C2C(C1=O)C1C=C(c3ccc(CO)cc3)C2C(C2CC2)N1Cc1sc2ccccc2c1Cl (configuration not stated) ?
1

Does z-score meet or surpass 0.2 for `COc1ccc([Si](C)(C)[C@H]2[C@H](CCn3cc(CCO)nn3)O[C@@]3(C(=O)N(Cc4ccc(N5C(=O)c6cccc7cccc5c67)cc4)c4ccccc43)[C@@H]2C)cc1` ?
1

Does z-score meet or surpass 0.2 for `COc1cc2c(cc1OC)CN(C(=O)[C@H]1[C@@H]3C(=O)O[C@@H](c4ccccc4)[C@@H](c4ccccc4)N3[C@@H](c3ccc(OCCO)cc3)[C@]13C(=O)Nc1ccc(C#CC4(O)CCCCCC4)cc13)CC2` ?
1

====

Experiment: RPMI8226 myeloma cell viability, profiling panel, resazurin fluorescence, basal, 24 h, PK04 Diversity Set (AID 1180);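 note: RPMI8826 multiple myeloma cell line at 5000 cells per well; test concentration not given here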
Details: higher = more signal
// values below are reported z-score
Answer with a number only.

Some compounds with recorded z-score:
Compound: COc1cc2c(cc1OC)CN(C(=O)[C@H]1[C@@H]3C(=O)O[C@@H](c4ccccc4)[C@@H](c4ccccc4)N3[C@@H](c3ccc(OCCO)cc3)[C@]13C(=O)Nc1ccc(C#CCCO)cc13)CC2
Numeric Value: 0.969
--
Compound: COc1cc2c(cc1O)C(C)N(Cc1cc3c(cc1Br)OCO3)CC2 (stereo not drawn)
Numeric Value: 0.538
--
Compound: O=C1OC[C@@H](c2ccccc2)N2CC(/C=C/c3ccccc3)=CC12 (stereo partly drawn)
Numeric Value: 0.594
--
Compound: COc1ccc(C(O)C2C=CC3C(=O)N(C)C(=O)C3N2N2CCCCC2)cc1 (stereo not drawn)
Numeric Value: -0.267
--
Compound: O=C1NCC(=O)N2[C@@H]1C[C@@H](C(=O)O)[C@H]2c1ccc(O)cc1
Numeric Value: 0.205

Now for another entry.
Give the reported value of z-score for this record: `O=C1O[C@@H](c2ccccc2)[C@@H](c2ccccc2)N2[C@@H](c3ccccc3OCCO)[C@]3(C(=O)Nc4ccc(C#CCCO)cc43)[C@@H](C(=O)N3CCN(c4ncccn4)CC3)[C@H]12`
-1.7
